Entry source: patent US20250354970A1

- EXPERIMENT: Unit input response, intravenous bolus plasma concentration
- Format: in vivo
- ASSAY_CONDITIONS: human, 3.00 days, read-out: Plasma Concentration of API A
OBSERVABLE: concentration at 3 days (ng/mL)
Report the figure in ng/mL without appending any unit label.

Q: Could you tell me which concentration at 3 days is on file for CC(C)(C#Cc1ccc(-c2ccc(Cl)c3c(NS(C)(=O)=O)nn(CC(F)(F)F)c23)c([C@H](Cc2cc(F)cc(F)c2)NC(=O)Cn2nc(C(F)(F)F)c3c2C(F)(F)[C@@H]2C[C@H]32)n1)S(C)(=O)=O [API A, Lenacapavir] ?
Result: 4.29

---

- EXPERIMENT: Unit input response, intravenous bolus plasma concentration
- Assay type: in vivo
- ASSAY_CONDITIONS: human, 1.00 days, read-out: Plasma Concentration of API A
OBSERVABLE: concentration at 1 days (ng/mL)
Note: unit ng/mL is implicit; provide only the numeric part.

Q: Query: concentration at 1 days; subject: "CC(C)(C#Cc1ccc(-c2ccc(Cl)c3c(NS(C)(=O)=O)nn(CC(F)(F)F)c23)c([C@H](Cc2cc(F)cc(F)c2)NC(=O)Cn2nc(C(F)(F)F)c3c2C(F)(F)[C@@H]2C[C@H]32)n1)S(C)(=O)=O"
Result: 4.33

---

- EXPERIMENT: Unit input response, intravenous bolus plasma concentration
- Format: in vivo
- ASSAY_CONDITIONS: human, 41.96 days, read-out: Plasma Concentration of API A
OBSERVABLE: concentration at 41.96 days (ng/mL)
# unit: ng/mL | format: bare number

Q: Which concentration at 41.96 days is reported for this molecule? "CC(C)(C#Cc1ccc(-c2ccc(Cl)c3c(NS(C)(=O)=O)nn(CC(F)(F)F)c23)c([C@H](Cc2cc(F)cc(F)c2)NC(=O)Cn2nc(C(F)(F)F)c3c2C(F)(F)[C@@H]2C[C@H]32)n1)S(C)(=O)=O"
Result: 0.43

---

- EXPERIMENT: Unit input response, intravenous bolus plasma concentration
- Format: in vivo
- ASSAY_CONDITIONS: human, 0.33 days, read-out: Plasma Concentration of API A
OBSERVABLE: concentration at 0.33 days
Give the number first and the unit second.

Q: Which concentration at 0.33 days is listed for "CC(C)(C#Cc1ccc(-c2ccc(Cl)c3c(NS(C)(=O)=O)nn(CC(F)(F)F)c23)c([C@H](Cc2cc(F)cc(F)c2)NC(=O)Cn2nc(C(F)(F)F)c3c2C(F)(F)[C@@H]2C[C@H]32)n1)S(C)(=O)=O" ?
Result: 5.71 ng/mL

---

- EXPERIMENT: Unit input response, intravenous bolus plasma concentration
- Format: in vivo
- ASSAY_CONDITIONS: human, 0.08 days, read-out: Plasma Concentration of API A
OBSERVABLE: concentration at 0.08 days (ng/mL)
Write the value in ng/mL as a bare number.

Q: What does the data say about its concentration at 0.08 days? Entry: "CC(C)(C#Cc1ccc(-c2ccc(Cl)c3c(NS(C)(=O)=O)nn(CC(F)(F)F)c23)c([C@H](Cc2cc(F)cc(F)c2)NC(=O)Cn2nc(C(F)(F)F)c3c2C(F)(F)[C@@H]2C[C@H]32)n1)S(C)(=O)=O"
Result: 27.7
